Target: T1, hCD112R mFC recombinant protein (human; murine, UniProt Q6DKI7 41-160)
T1 construct: range 41-160; expressed in 293E cells; also called hCD112R ECD mFC; hCD112R-ECD-mFC; not shown: murine IgG2a Fc domain (MX2-mFc vector)
T1 sequence (looked up): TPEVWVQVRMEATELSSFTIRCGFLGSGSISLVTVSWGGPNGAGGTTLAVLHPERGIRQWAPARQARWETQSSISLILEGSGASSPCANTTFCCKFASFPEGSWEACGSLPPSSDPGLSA
Assay: FACS competition, hCD112R mFc on CHO CD112 cells; IC50 COM701/IC50 antibody
Threshold check on Relative activity (%): at or above 90% gives true, strictly below gives false.

Examples with answers:
# BINDER, CATEGORY LABEL
measured = [
    ("Hu29 (antibody, IgG4, V domains shown, humanized IgG4) VH: EVQLVESGGGLVQPGGSLRLSCAASGFTFSSYHMSWVRQAPGKGLELVAAISRDGDSTYYPDTVKGRFTISRDNAKNSLYLQMNSLRAEDTAVYYCSRHEDYFGFAMDSWGQGTLVTVSS VL: DIQMTQSPSSLSASVGDRVTITCKASQSVSNDVAWYQQKPGKAPKLLIYYVSNRFTGVPSRFSGSGSGTDFTLTISSLQPEDFATYFCQQAYRSPWTFGQGTKLEIK", "true"),
    ("Hu58 (antibody, IgG4, V domains shown, humanized IgG4) VH: EVQLVESGGGLVQPGGSLRLSCAASGFTFSSYHMSWIRQAPGKGLELVAAINSNGINTYYLDTVKGRFTISRDNAKNSLYLQMNSLRAEDTAVYYCARHEDYYGFAMDYWGQGTLVTVSS VL: DIVMTQSPDSLAVSLGERATINCKASQSVSNDVAWYQQKPGQPPKLLIYYVSHRFTGVPDRFSGSGSGTDFTLTISSLQAEDVAVYFCHQAYRSPWTFGQGTKLEIK", "false"),
    ("Hu27 (antibody, IgG4, V domains shown, humanized IgG4) VH: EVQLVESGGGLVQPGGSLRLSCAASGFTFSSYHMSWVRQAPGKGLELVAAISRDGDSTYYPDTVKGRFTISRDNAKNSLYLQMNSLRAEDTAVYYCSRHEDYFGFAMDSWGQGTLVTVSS VL: EIVMTQSPPTLSLSPGERVTLSCKASQSVSNDVAWYQEKPGQAPRLLIYYVSHRFTGIPARFSGSGSGTDFTLTISSLQPEDFAVYYCHQAYRSPWTFGQGTKLEIK", "true"),
    ("Hu53 (antibody, IgG4, V domains shown, humanized IgG4) VH: EVQLVESGGGLVKPGGSLRLSCAASGFTFSSYHMSWVRQAPGKGLELVSAINSNGINTYYLDTVKGRFTISRDNAKNSLYLQMNSLRAEDTAVYYCARHEDYYGFAMDYWGQGTLVTVSS VL: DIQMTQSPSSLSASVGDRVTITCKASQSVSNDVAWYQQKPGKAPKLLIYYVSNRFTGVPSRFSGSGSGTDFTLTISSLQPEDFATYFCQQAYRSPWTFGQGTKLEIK", "false"),
    ("Hu22 (antibody, IgG4, V domains shown, humanized IgG4) VH: EVQLVESGGGLVKPGGSLRLSCAASGFTFSSYHMSWVRQAPGKGLELVSAISRDGDSTYYPDTVKGRFTISRDDAENSLYLQMNSLRAEDTAVYYCSRHEDYFGFAMDSWGQGTLVTVSS VL: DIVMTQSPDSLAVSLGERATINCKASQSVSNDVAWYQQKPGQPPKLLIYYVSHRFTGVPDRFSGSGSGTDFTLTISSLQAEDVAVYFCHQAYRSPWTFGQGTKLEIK", "true"),
]

input: Please tell me: is the binder Hu7 (antibody, IgG4, V domains shown, humanized IgG4; also called Hu-07) VH: EVQLVESGGGLVKPGGSLRLSCAASGFTFSSYHMSWVRQAPGKGLELVSAINSNDINTYYLDTVKGRFTISRDIAKNSLYLQMNSLRAEDTAVYYCARHEDYYGFAMDYWGQGTLVTVSS VL: DIVMTQSPDSLAVSLGERATINCKASQSVTNDVAWYQQKPGQPPKLLIYYVSNHYTGVPDRFSGSGSGTDFTLTISSLQAEDVAVYFCQQAYRSPWTFGQGTKLEIK at or over 90% in terms of Relative activity (%)?
output: false

input: Please tell me: is the binder Hu28 (antibody, IgG4, V domains shown, humanized IgG4) VH: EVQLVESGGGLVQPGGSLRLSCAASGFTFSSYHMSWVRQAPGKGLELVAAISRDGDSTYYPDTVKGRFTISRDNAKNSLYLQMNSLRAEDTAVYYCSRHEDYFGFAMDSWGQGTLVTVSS VL: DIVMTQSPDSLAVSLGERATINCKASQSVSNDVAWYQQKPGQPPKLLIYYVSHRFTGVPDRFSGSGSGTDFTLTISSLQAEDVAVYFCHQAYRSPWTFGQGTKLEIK at or over 90% in terms of Relative activity (%)?
output: true

input: Please tell me: is the binder Hu32 (antibody, IgG4, V domains shown, humanized IgG4) VH: EVQLVESGGGLVQPGGSLRLSCAASGFTFSSYHMSWVRQAPGKGLELVAAISRDGDSTYYPDTVKGRFTISRDDAENSLYLQMNSLRAEDTAVYYCSRHEDYFGFAMDSWGQGTLVTVSS VL: AIQMTQSPSSLSASVGDRVTITCKASQSVTNDVAWYQQKPGKAPKLLIYYVSNHYTGVPSRFSGSGSGTDFTLTISSLQPEDFATYFCQQAYRSPWTFGQGTKLEIK at or over 90% in terms of Relative activity (%)?
output: true
